Test system: A549/ATCC NSCLC
Assay: NCI-60 one-dose screen, 48 h (100 = growth as untreated, 0 = no growth, -100 = all killed)
Conditions: 10 µM
The panel holds about 83,000 compounds, 20% with a hit somewhere; the sample as a whole holds those more often.
Each entry below lists one item and its recorded growth value.
Could you give me the number in %? Just the number is fine.

- compound: "COc1ccc(-c2nsc3c2NC(=O)CC3c2ccc(F)cc2)cc1 (stereo not given)"
  growth (%): 27.2
- compound: "COc1ccc2c(c1)C(=O)c1c-2c(OCCN2CCCCC2)nc2ccc(OC)cc12"
  growth (%): 11.6
- compound: "O=C(CSSCC(=O)c1ccc(Cl)cc1)c1ccc(Cl)cc1"
  growth (%): 63.6
- compound: "O=C(Nc1ccc(CN2CCc3nc4cc(O)c(O)cc4cc32)cc1)c1ccc(Cl)c(Cl)c1"
  growth (%): 111

# input for lookup
Give a short answer stating reported growth for `O=C(N/N=C\c1cc(Cl)ccc1[N+](=O)[O-])c1ccco1` .
90.7

----------
System: NCI-H226 lung
Experiment: NCI-60 one-dose screen, 48 h (100 = growth as untreated, 0 = no growth, -100 = all killed)
Settings: 10 µM
The panel holds about 83,000 compounds, 20% with a hit somewhere; the sample as a whole holds those more often.
recordedMetric: growth (%)
# unit: % | format: bare number

- compound: "COc1ccc2c(c1)C(=O)c1c-2c(OCCN(C)C)nc2cc(OC)c(OC)cc12"
  growth (%): 58
- compound: "COc1ccccc1CNCCCN1C(=O)c2ccc3c4c(ccc(c24)C1=O)C(=O)N(CCCN)C3=O"
  growth (%): 47.3
- compound: "O=C1OCC2=C1C(c1cccc(Br)c1)c1cc3c(cc1N2CCO)CCC3 (stereo not drawn)"
  growth (%): -15.7
- compound: "Clc1nc(Cl)c2c(ncn2C/C=C\\Cn2cnc3c(Cl)nc(Cl)nc32)n1"
  growth (%): -80.1
- compound: "C#Cc1ccc(-n2c(/C=C/c3ccc(C(F)(F)F)cc3)nc3ncccc3c2=O)cc1"
  growth (%): -42.7
- compound: "O=C(O)c1ccc(P(=O)(O)O)c([N+](=O)[O-])c1"
  growth (%): 94.4

Let me know recorded growth for COc1cc2c(cc1OCCCN1CCN(c3ncnc4ccccc34)CC1)N=CC1CCCN1C2=O (stereo not drawn) , thanks.
-50.1

Name the recorded growth of the compound listed here: `Cc1cc(Cl)nc(N(CCCNc2ccnc3cc(Cl)ccc23)Cc2cccs2)n1`
41.1

Please list growth recorded for the compound COc1ccc(OC)c2c1C(=O)CC2C (stereo not drawn)
101

Identify the reported growth for the following entry. `O=C(Nc1cccc(-n2cc(-c3ccncc3)c(-c3ccc(O)c(Cl)c3)n2)c1)c1cccc(C(F)(F)F)c1`
68

Give the reported value of growth for this record: `COc1ccc(Nc2ccnc(NCCNc3ccnc4cc(Cl)ccc34)n2)cc1`
49.7

Dear colleague, please send me the reported growth for `CN(C)CCN=c1nc2c(c(N)n1-c1ccccc1)c(=S)n(-c1ccccc1)c(=S)n2-c1ccccc1` when you can.
82.3

----------
Quick reference for growth among some molecules
Tested on: NCI-H322M lung
Assay: NCI-60 one-dose screen, 48 h (100 = growth as untreated, 0 = no growth, -100 = all killed)
Details: 10 µM
Experimental: Growth inhibition of the NCI-H322M human Non-Small Cell Lung tumor cell line is measured as a screen for anti-cancer activity. Cells are grown in 96 well plates and exposed to the test compound for 48 hours. Compounds are tested at a single concentration, which is 10^-5 M for most compounds. The reported endpoint is percent growth (GI% or GIPRCNT), where numbers from 0 - 100% represent growth inhibition, and numbers from -100% - 0 represent cell death. […]
About 83,000 compounds went through this panel and 20% of them were active in at least one assay; those are over-represented in the sample as a whole.
Response body: numeric value in %, unit text excluded.

Recorded results for 3 molecules are shown here.
- molecule: "O=C(CC(NC(=O)OCc1ccccc1)C(=O)OCc1ccccc1)OCc1ccccc1 (stereo unspecified)"
  testTarget: "NCI-H322M lung"
  readoutNumber: 99
- molecule: "CC1(C)N=C(N)N=C(N)N1c1ccc(CCc2ccccc2)c(Cl)c1"
  testTarget: "NCI-H322M lung"
  readoutNumber: 28.7
- molecule: "COc1ccc(-c2ccc(-c3ccc(C(=N)N)cn3)o2)cc1"
  testTarget: "NCI-H322M lung"
  readoutNumber: 77.6

Query growth for `O=[N+]([O-])c1ccc(N/N=C/c2cccc3ccccc23)nc1`
105

Kindly indicate its recorded growth. Item: N#CSCC1CC(O)(c2ccccc2)CC(c2ccc(Cl)cc2)O1 (stereo unspecified)
52.4

Look up and report measured growth for this entry: `C#Cc1ccc(-n2c(/C=C/c3ccc(O)c(OC)c3)nc3ncccc3c2=O)cc1`
98.2

----------
Tested on: K-562 leukemia
Assay: NCI-60 one-dose screen, 48 h
Details: 10 µM
About 83,000 compounds went through this panel and 20% of them were active in at least one assay; those are over-represented in the sample as a whole. The source made the active and inactive calls. How the source made its calls: active means growth percent below 10; inactive means the rest.
// classify into y for active, n for inactive

Please review the following examples before continuing.
- compound: "COc1ccc(Cl)cc1C(=O)Nc1nc2ccc(Cl)cc2s1"
  testTarget: "K-562 leukemia"
  assignedLabel: "n"
- compound: "Cc1ccc(-c2n[nH]c(=O)c3noc(-c4ccc(C)cc4)c23)cc1"
  testTarget: "K-562 leukemia"
  assignedLabel: "n"

Please indicate how the test categorized `O=C(c1ccc(Cl)cc1Cl)N1CCOCC1` .
n

Kindly provide the recorded test outcome for the following compound: `COc1ccc(Cn2c(C(N)=O)cc3c2-c2nc(N)ncc2CCC3)cc1`
n

What is the recorded call for this compound in the test? COc1cc(/C=C2\CCCC3=C2N=C2SC=NN2C3c2cc(OC)c(OC)c(OC)c2)cc(OC)c1OC (configuration not stated)
y

# outcome recorded in this test, key = `COc1ccc(OC)c(/C=C/c2nc(SCc3ccccc3)n(-c3ccc(Cl)cc3)n2)c1`
n

----------
Recorded growth, one value per entry.
Tested on: OVCAR-5 ovarian
Assay: NCI-60 one-dose screen, 48 h (100 = growth as untreated, 0 = no growth, -100 = all killed)
Details: 10 µM
This is part of a sample that, as a whole, favours compounds with a hit. Of some 83,000 tested, about 20% had one in any assay.
Please give a number only; it is taken to be in %.

- compound: "Nc1nc(N)c2c(ccc3nccc32)[nH]1"
  testTarget: "OVCAR-5 ovarian"
  unitString: "%"
  growth: 65.2
- compound: "c1ccc(CSc2nnc3c4c5c(sc4nc(-c4cccnc4)n23)CCCCCC5)cc1"
  testTarget: "OVCAR-5 ovarian"
  unitString: "%"
  growth: 95.2
- compound: "O=C(NC(Cc1ccc(O)cc1)C(=O)N=Nc1c(O)[nH]c2ccccc12)c1ccccc1 (configuration not stated)"
  testTarget: "OVCAR-5 ovarian"
  unitString: "%"
  growth: 110
- compound: "CCCCOc1ccc(NC(=O)Nc2nnc(C)s2)cc1"
  testTarget: "OVCAR-5 ovarian"
  unitString: "%"
  growth: 102
- compound: "Cc1nc2oc3ccccc3c(=O)c2cc1C(=O)NCc1ccccc1"
  testTarget: "OVCAR-5 ovarian"
  unitString: "%"
  growth: 81.8

Answer briefly: growth recorded on OVCAR-5 ovarian for `CN(Cc1ccccc1)Cc1ccc([N+](=O)[O-])cc1I`
93.7

Jot down growth (OVCAR-5 ovarian) of `c1ccc(CP(Cc2ccccc2)c2ccccc2)cc1` .
102

----------
Tested on: DU-145 prostate
Test: NCI-60 one-dose screen, 48 h (100 = growth as untreated, 0 = no growth, -100 = all killed)
Settings: 10 µM
About 83,000 compounds went through this panel and 20% of them were active in at least one assay; those are over-represented in the sample as a whole.
Parameter: growth. Scope: all listed entries.
Value expressed in %; do not type the unit.

- compound: "Cc1cccc(Cl)c1NC(=O)c1ccc2nc(NC(=O)NC3CCN(C)CC3)sc2c1"
  testTarget: "DU-145 prostate"
  growth (%): 103

Please report the measured growth for `COC(=O)C(=C\c1ccc2c(c1)OCO2)/C(=C/c1ccc2c(c1)OCO2)C(=O)OC`
103

Check the records and state growth for `CNc1ncc(-c2ccc(C(F)(F)F)cc2)c(NC2CCCCCC2)n1`
91

Given the compound CC[C@H](C)C(=O)O[C@H]1CCC=C2C=C[C@H](C)C(CCC3C[C@@H](O)CC(=O)O3)[C@H]21 (stereo partly specified) , write its reported growth.
110

Give growth for `COc1ccc(Cl)cc1C(=O)Nc1nc2ccc(Cl)cc2s1`
94.9

Fill in growth for record `COc1cc(/C=N/NC(=O)c2ccccc2Nc2ccnc(C(F)(F)F)c2)ccc1O`
130

----------
System: HCT-116 colon
Test: NCI-60 one-dose screen, 48 h (100 = growth as untreated, 0 = no growth, -100 = all killed)
Settings: 10 µM
About 83,000 compounds went through this panel and 20% of them were active in at least one assay; those are over-represented in the sample as a whole. Active and inactive are the calls of the source. The calls were made as follows: active = growth percent below 10; inactive = the rest.
// growth lookup, one value per entry

Illustrative cases are given below, each with its answer.
- molecule: "COc1ccc(Nc2ncnc3c2c(SC)nn3-c2ccccc2)cc1"
  growth: "89.2% (inactive)"
- molecule: "CCN(CC)CCC(CNc1c(C)cnc2cc(Cl)ccc12)c1ccc(Cl)cc1 (stereo not given)"
  growth: "23% (inactive)"
- molecule: "CCN(CC)CCC(CNc1c(C)cnc2cc(Cl)ccc12)c1ccc(Cl)c(Cl)c1 (stereo not given)"
  growth: "21.7% (inactive)"
- molecule: "COc1ccc(OC)c(/C=C/c2nc(SC)n(-c3ccc(Cl)cc3)n2)c1"
  growth: "59.8% (inactive)"

Turning now to a further molecule:
Report growth for Nc1c(C(=O)Nc2cccc(Br)c2)sc2nc3c(cc12)C(O)CCC3 (stereo not given)
16.4% (inactive)
